# TARGET: Factor D (Homo sapiens)
Give measured IC50 for each item. Keep answers brief.

N#Cc1cn(CC(=O)N2C[C@H](F)C[C@H]2C(=O)NCc2cccc(Cl)c2F)c2ncnc(N)c12 [Compound 130e] | 100 to 1000 nM

Could I get IC50 for every one of these entries?
1. Cc1ccc(Br)nc1NC(=O)[C@@H]1C[C@@]2(C)C[C@H]2N1C(=O)Cn1ccc2c(N)ncnc21 [Compound 74a]
2. Cc1ccc2c(c1)c1c(N)ncnc1n2CC(=O)N1C[C@H](F)C[C@H]1C(=O)NCc1cccc(Cl)c1F [Compound 7b]
3. Nc1ncnc2c1c1ccc(Br)cc1n2CC(=O)N1[C@@H]2C[C@@H]2C[C@H]1C(=O)Nc1cccc(Br)n1 [Compound 52f]
4. COc1cc2c3c(N)ncnc3n(CC(=O)N3[C@H](C(=O)Nc4cccc(Br)n4)C[C@@]4(C)C[C@@H]34)c2cc1F [Compound 331a]

["100 to 1000 nM", "< 100 nM", "< 100 nM", "< 100 nM"]

* * *

# TARGET: Factor D (Homo sapiens, UniProt P00746)
# Sequence (P00746 26-253): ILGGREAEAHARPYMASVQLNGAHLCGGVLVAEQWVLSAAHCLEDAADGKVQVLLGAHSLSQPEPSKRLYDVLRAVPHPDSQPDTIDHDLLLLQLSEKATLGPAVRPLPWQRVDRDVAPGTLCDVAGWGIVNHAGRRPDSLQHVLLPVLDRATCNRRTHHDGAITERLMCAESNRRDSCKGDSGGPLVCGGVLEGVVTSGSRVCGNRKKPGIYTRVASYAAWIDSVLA
Give measured IC50 for each item. Keep answers brief.

Could I get IC50 for every one of these entries?
1. Nc1ncnc2c1c1cc(CO)ccc1n2CC(=O)N1[C@@H]2C[C@@H]2C[C@H]1C(=O)Nc1cccc(Br)n1 [Compound 195e]
2. C[C@@]12C[C@@H](C(=O)Nc3cccc(Br)n3)N(C(=O)Cn3c4ccc(-c5ccccc5)nc4c4c(N)ncnc43)[C@@H]1C2 [Compound 299a]
3. Nc1ncnc2c1c1cc(OC(F)(F)F)ccc1n2CC(=O)N1[C@@H]2C[C@@H]2C[C@H]1C(=O)Nc1cccc(Br)n1 [Compound 274g]
4. Cc1ccc(Br)nc1NC(=O)[C@@H]1C[C@@]2(C)C[C@H]2N1C(=O)Cn1c2ccccc2c2c(N)ncnc21 [Compound 12a]
5. Cc1cc2c3c(N)ncnc3n(CC(=O)N3[C@@H]4C[C@@H]4C[C@H]3C(=O)Nc3cccc(Br)n3)c2cc1F [Compound 384g]
6. COc1ccc2c3c(N)ncnc3n(CC(=O)N3[C@H](C(=O)Nc4nc(Br)ccc4C)C[C@@]4(C)C[C@@H]34)c2c1 [Compound 253a]
7. Nc1ncnc2c1c(-c1c[nH]c3ccccc13)cn2CC(=O)N1C[C@H](F)C[C@H]1C(=O)NCc1cccc(Cl)c1F [Compound 126f]

["< 100 nM", "< 100 nM", "< 100 nM", "< 100 nM", "< 100 nM", "< 100 nM", "100 to 1000 nM"]

* * *

Measured IC50 (Factor D (Homo sapiens))

Guide cases for IC50, answers given:
Cc1ccc(Br)nc1NC(=O)[C@@H]1C[C@@H](F)CN1C(=O)Cn1cnc2c(N)ncnc21 [Compound 68a] | 100 to 1000 nM
CO[C@@H]1C[C@@H](C(=O)Nc2cccc(Br)n2)N(C(=O)Cn2c3ccc(C(F)(F)F)cc3c3c(N)ncnc32)C1 [Compound 248d] | > 1000 nM
CC(O)c1ccc2c(c1)c1c(N)ncnc1n2CC(=O)N1[C@@H]2C[C@@H]2C[C@H]1C(=O)Nc1cccc(Br)n1 (stereo partly drawn) [Compound 170c] | < 100 nM

Could I get IC50 for every one of these entries?
1. Nc1ncnc2c1c1cc(C(F)(F)F)ccc1n2CC(=O)N1[C@@H]2C[C@@H]2C[C@H]1C(=O)Nc1cccc(Br)c1F [Compound 268b]
2. C[C@@]12C[C@@H](C(=O)Nc3cccc(Cl)n3)N(C(=O)Cn3c4ccc(C(F)(F)F)cc4c4c(N)ncnc43)[C@@H]1C2 [Compound 269c]

< 100 nM
< 100 nM

* * *

Measured IC50 (Factor D (Homo sapiens, UniProt P00746))

Guide cases for IC50, answers given:
C[C@@]12C[C@@H](C(=O)Nc3cccc(Br)n3)N(C(=O)Cn3c4cnccc4c4c(N)ncnc43)[C@@H]1C2 [Compound 182a] | < 100 nM
COC(=O)c1cnc2c(ccn2CC(=O)N2C[C@H](F)C[C@H]2C(=O)NCc2cccc(Cl)c2F)c1N [Compound 147a] | > 1000 nM

Now examine the next entry.
Can you look up IC50 on Factor D (Homo sapiens, UniProt P00746) for Cc1cc(C)c2c(c1)c1c(N)ncnc1n2CC(=O)N1[C@@H]2C[C@@H]2C[C@H]1C(=O)Nc1cccc(Br)n1 [Compound 189g] ?
< 100 nM

* * *

# TARGET: Factor D (Homo sapiens)
pIC50: −log10 of the molar value.
Give measured pIC50 for each item. Keep answers brief.

Guide cases for pIC50, answers given:
COC(=O)c1cc(C)c2c(c1)c1c(N)ncnc1n2CC(=O)N1[C@H](C(=O)Nc2cccc(Br)n2)C[C@@]2(C)C[C@@H]12 [Compound 216g] | > 7.00
COc1cccc2c3c(N)ncnc3n(CC(=O)N3[C@H](C(=O)Nc4nc(Br)ccc4C)C[C@@]4(C)C[C@@H]34)c12 [Compound 254a] | > 7.00

Now examine the next entry.
Would you kindly share the measured pIC50 for Nc1cn(CC(=O)N2[C@@H]3C[C@@H]3C[C@H]2C(=O)Nc2cccc(Br)n2)c2ncncc12 [Compound 129f] ?
6.00 to 7.00

* * *

Measured pIC50 (Factor D (Homo sapiens, UniProt P00746))
pIC50: −log10 of the molar value.

Guide cases for pIC50, answers given:
C[C@@]12C[C@@H](C(=O)Nc3cccc(Br)n3)N(C(=O)Cn3c4ncnc(N)c4c4cccc(C(F)(F)F)c43)[C@@H]1C2 [Compound 175a] | < 6.00
Nc1ncnn2c(CC(=O)N3[C@@H]4C[C@@H]4C[C@H]3C(=O)Nc3cccc(Br)n3)ccc12 [Compound 70a] | 6.00 to 7.00
Nc1ncnc2c1c1nc(-c3ccccc3)ccc1n2CC(=O)N1[C@@H]2C[C@@H]2C[C@H]1C(=O)Nc1cccc(Br)n1 [Compound 298c] | > 7.00
C[C@@]12C[C@@H](C(=O)Nc3cccc(Br)n3)N(C(=O)Cn3c4ncnc(N)c4c4cccc(F)c43)[C@@H]1C2 [Compound 198a] | > 7.00
C[C@@]12C[C@@H](C(=O)Nc3cccc(Br)n3)N(C(=O)Cn3c4cc(F)c(F)cc4c4c(N)ncnc43)[C@@H]1C2 [Compound 387a] | > 7.00
Cc1cc(-c2ccnc(C(F)(F)F)c2)cc2c3c(N)ncnc3n(CC(=O)N3[C@@H]4C[C@@H]4C[C@H]3C(=O)Nc3cccc(Br)n3)c12 [Compound 354c] | > 7.00
C[C@@]12C[C@@H](C(=O)Nc3cccc(Br)n3)N(C(=O)Cn3c4cc(Br)ccc4c4c(N)ncnc43)[C@@H]1C2 [Compound 200a] | > 7.00
Nc1ncnc2c1c1cc(F)ccc1n2CC(=O)N1[C@@H]2C[C@@H]2C[C@H]1C(=O)Nc1cccc(Br)n1 [Compound 32f] | > 7.00

Could I get pIC50 for every one of these entries?
1. COC(=O)c1cccc2c3c(N)ncnc3n(CC(=O)N3[C@H](C(=O)Nc4cccc(Br)n4)C[C@@]4(C)C[C@@H]34)c12 [Compound 223a]
2. COc1cc2c3c(N)ncnc3n(CC(=O)N3[C@@H]4C[C@@H]4C[C@H]3C(=O)Nc3cccc(Br)n3)c2cc1F [Compound 330f]
3. Cc1cc(C(F)(F)F)cc2c3c(N)ncnc3n(CC(=O)N3[C@@H]4C[C@@H]4C[C@H]3C(=O)Nc3cccc(OC(F)F)n3)c12 [Compound 345c]

["> 7.00", "> 7.00", "> 7.00"]

* * *

pIC50: −log10 of the molar value.
Measured pIC50 (UniProt P00746)

Guide cases for pIC50, answers given:
COc1cccc(NC(=O)[C@@H]2C[C@H]3C[C@H]3N2C(=O)Cn2cnc3c(N)ncnc32)c1F [Compound 108b] | < 6.00
Cc1cc(C2CC2)cc2c3c(N)ncnc3n(CC(=O)N3[C@@H]4C[C@@H]4C[C@H]3C(=O)Nc3cccc(Br)n3)c12 [Compound 360c] | > 7.00

Now examine the next entry.
Would you kindly share the measured pIC50 for CC(C)=C(F)CNC(=O)[C@@H]1C[C@H]2C[C@H]2N1C(=O)Cn1cnc2c(N)ncnc21 [Compound 111b] ?
6.00 to 7.00

* * *

Give measured IC50 for each item. Keep answers brief.
# TARGET: Factor D (Homo sapiens, UniProt P00746)
# ASSAY NAME: Factor D esterolytic assay (Z-Lys-SBzl thioester substrate, DTNB, 405 nm)
# Assay type: biochemical
# MEASUREMENT SETUP: substrate Z-Lys-SBzl 1.29 mM, 100 mM HEPES, 500 mM NaCl, pH 7.5, 10% DMSO, tested a minimum of three times
# Method: The IC50 value of a compound (i.e., the concentration of the compound that inhibits 50% of the enzymatic activity) was calculated according to the procedure reported in U.S. Pat. No. 6,653,340 B1, e.g., column 74 (incorporated by reference). Specifically, the compounds were dissolved in a stock solution of DMSO at 10.0 or 100 mM. […] The reaction rates were measured spectrophotometrically by the generation of product at 405 nm for 600 sec. […]

Nc1ncnc2c1cc1n2C(C(=O)N2[C@@H](C(=O)Nc3cccc(Br)n3)C[C@@H]3C[C@@H]32)Oc2ccccc2-1 (some centres unmarked) [Compound 233h] | < 100 nM
Cc1ccc2c(c1)c1c(N)ncnc1n2CC(=O)N1[C@H](C(=O)Nc2nc(Br)ccc2C)C[C@@]2(C)C[C@@H]12 [Compound 10b] | < 100 nM
Cc1ccc(Cl)nc1NC(=O)[C@@H]1C[C@@H](F)CN1C(=O)Cn1c2ncnc(N)c2c2cc(C(F)(F)F)cc(C)c21 [Compound 365c] | < 100 nM

Could I get IC50 for every one of these entries?
1. Nc1ncnc2c1c1cccc(C(=O)O)c1n2CC(=O)N1[C@@H]2C[C@@H]2C[C@H]1C(=O)Nc1cccc(Br)n1 [Compound 220a]
2. Nc1ncnc2c1c1cc(C(F)(F)F)ccc1n2CC(=O)N1CC2(CC2)C[C@H]1C(=O)Nc1cccc(Br)n1 [Compound 53d]
3. CC(=O)c1ccc2c(c1)c1c(N)ncnc1n2CC(=O)N1[C@@H]2C[C@@H]2C[C@H]1C(=O)Nc1cccc(Br)n1 [Compound 58c]
4. COc1cc2c(cc1Br)c1c(N)ncnc1n2CC(=O)N1[C@H](C(=O)Nc2cccc(Br)n2)C[C@@]2(C)C[C@@H]12 [Compound 375a]
5. COCc1ccc2c(c1)c1c(N)ncnc1n2CC(=O)N1[C@@H]2C[C@@H]2C[C@H]1C(=O)Nc1cccc(Br)n1 [Compound 339g]
6. COC(=O)c1cc(C)c2c(c1)c1c(N)ncnc1n2CC(=O)N1[C@@H]2C[C@@H]2C[C@H]1C(=O)Nc1cccc(Br)n1 [Compound 217a]
7. C[C@@]1(F)C[C@@H](C(=O)Nc2cccc(Br)n2)N(C(=O)Cn2c3ccc(C(F)(F)F)cc3c3c(N)ncnc32)C1 [Compound 207b]
8. COC(=O)Nc1ccc2c(c1)c1c(N)ncnc1n2CC(=O)N1[C@@H]2C[C@@H]2C[C@H]1C(=O)Nc1cccc(Br)n1 [Compound 225e]

1: 100 to 1000 nM; 2: 100 to 1000 nM; 3: < 100 nM; 4: < 100 nM; 5: < 100 nM; 6: < 100 nM; 7: < 100 nM; 8: < 100 nM

Could I get IC50 for every one of these entries?
1. Nc1ncnc2c1ncn2CC(=O)N1[C@@H]2C[C@@H]2C[C@H]1C(=O)Nc1cccc(OC(F)(F)F)c1 [Compound 107b]
2. Nc1ncnc2c1c1c(F)cccc1n2CC(=O)N1[C@@H]2C[C@@H]2C[C@H]1C(=O)Nc1cccc(Br)n1 [Compound 50f]
3. Cc1ccc(-c2cc(C)c3c(c2)c2c(N)ncnc2n3CC(=O)N2[C@@H]3C[C@@H]3C[C@H]2C(=O)Nc2cccc(Br)n2)cc1 [Compound 256a]
4. Cc1ccc(-c2cc(C)c3c(c2)c2c(N)ncnc2n3CC(=O)N2[C@H](C(=O)Nc3cccc(Br)n3)C[C@@]3(C)C[C@@H]23)cc1 [Compound 255c]
5. Nc1ncnc2c1c1ccc(-c3ccccc3)cc1n2CC(=O)N1[C@@H]2C[C@@H]2C[C@H]1C(=O)Nc1cccc(Br)n1 [Compound 227c]
6. COc1cc([N+](=O)[O-])cc2c3c(N)ncnc3n(CC(=O)N3[C@@H]4C[C@@H]4C[C@H]3C(=O)Nc3cccc(Br)n3)c12 [Compound 242g]
7. Cc1cc(C(F)(F)F)cc2c3c(N)ncnc3n(CC(=O)N3[C@@H]4C[C@@H]4C[C@H]3C(=O)Nc3cccc(C(F)(F)F)n3)c12 [Compound 349c]
8. Nc1ncnc2c1c1cc(C(F)(F)F)ccc1n2CC(=O)N1c2ccccc2C[C@H]1C(=O)Nc1cccc(Br)n1 [Compound 179d]

1: > 1000 nM; 2: 100 to 1000 nM; 3: < 100 nM; 4: < 100 nM; 5: < 100 nM; 6: < 100 nM; 7: < 100 nM; 8: > 1000 nM

Would you kindly share the measured IC50 for CCc1ccc2c(c1)c1c(N)ncnc1n2CC(=O)N1[C@@H]2C[C@@H]2C[C@H]1C(=O)Nc1cccc(Br)n1 [Compound 187c] ?
< 100 nM

From: patent US12679843B2
